- ASSAY PROTOCOL: Confirmatory qHTS for activators (rescue) of SARS-CoV-2 Cytopathic Effect (CPE) (AID 1508606); note: nearly all actives have a fitted effect of over 70% in size
- CONDITION DETAILS: Vero E6 SARS-CoV-2 CPE rescue, viability luminescence; series mostly up to 20 µM
Results filed as inconclusive are left out. Active and inactive are the calls of the source. Calls come from the whole dose curve.
Outcome codes: true (1) (active), false (0) (inactive)

COMPOUND | DISCRETE LABEL
CN(C)CCCN1c2ccccc2Sc2ccc(Cl)cc21 | true (1)
COc1ccccc1OCCNCC(O)COc1cccc2[nH]c3ccccc3c12 (stereo unspecified) | true (1)
Cc1c(O)cccc1C(=O)N[C@@H](CSc1ccccc1)[C@H](O)CN1C[C@H]2CCCC[C@H]2C[C@H]1C(=O)NC(C)(C)C | true (1)
OCCN1CCN(CCCN2c3ccccc3Sc3ccc(Cl)cc32)CC1 | false (0)
CC(=O)Oc1ccccc1C(=O)Nc1ncc([N+](=O)[O-])s1 | true (1)
COc1cc(C(C)=O)ccc1OCCCN1CCC(c2noc3cc(F)ccc23)CC1 | true (1)

----------
- ASSAY PROTOCOL: Cell Viability - LYMP2-020 (AID 986);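 note: cells exposed to compound for 24 h at 37 °C; nearly all actives have a fitted effect of over 55% in size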
- CONDITION DETAILS: series mostly up to 92.2 µM
Inconclusive results are not listed. Activity calls are given as the source filed them. Calls come from the whole dose curve; as a rule, active = well fitted cell-killing curve with a large enough effect; inconclusive = small, poorly fitted or top-dose-only effect; inactive = flat fitted curve, though single readings scatter.
Outcome codes: active, inactive

MOLECULE | DISCRETE LABEL
Oc1ccc(Cl)cc1Cc1ccccc1 | inactive
OCCOc1ccccc1 | inactive
CC(COc1ccccc1)N(CCCl)Cc1ccccc1 (stereo unspecified) | active
CNCC(O)c1ccc(O)cc1 (stereo unspecified) | inactive
CCOP(=S)(OCC)Oc1cc(C)nc(C(C)C)n1 | inactive
CCCC(C)(COC(N)=O)COC(=O)NC(C)C (stereo unspecified) | inactive

----------
- Tested on: CAOV3
- ASSAY PROTOCOL: Primary qHTS to identify gynecologic anti-cancer compounds using libraries of approved drugs and bioactive compounds (AID 1345084); note: nearly all actives have a fitted effect of over 55% in size
- CONDITION DETAILS: Gynecologic cancer cell panel viability, ATPlite luminescence, 48 h; series mostly up to 57.5 µM
Records with an inconclusive call do not appear. Calls of active or inactive are those of the source. Calls come from the whole dose curve; as a rule, active = well fitted cell-killing curve with a large enough effect; inconclusive = small, poorly fitted or top-dose-only effect, or effect the other way; inactive = flat fitted curve, though single readings scatter.

MOLECULE | activity change, negative = cytotoxicity
COc1ccccc1N1CCNCC1 | inactive
Cc1cc(SCc2sc(-c3ccc(C(F)(F)F)c(F)c3)nc2C)ccc1OCC(=O)O | inactive
O=c1oc2ccccc2c(O)c1C(CC(O)c1ccc(-c2ccc(Br)cc2)cc1)c1ccccc1 (stereo unspecified) | inactive
CNCC(O)c1ccc(O)cc1 (stereo unspecified) | inactive
Clc1cccc(N2CCNCC2)c1 | inactive
CCCN1CCC[C@@H]2Cc3nc(N)ncc3C[C@H]21 | inactive

----------
- ASSAYED TARGET: Nucleoprotein (Lymphocytic choriomeningitis virus (strain Armstrong))
- ASSAY PROTOCOL: qHTS for Inhibitors of the Functional Ribonucleoprotein Complex (vRNP) of Lymphocytic Choriomeningitis Arenaviruses (LCMV): LCMV Primary Screen - GLuc reporter signal (AID 1347086); note: nearly all actives have a fitted effect of over 70% in size
- CONDITION DETAILS: LCMV minigenome vRNP cell assay, Gaussia luciferase reporter; series mostly up to 57.5 µM
Inconclusive results are not listed. Active and inactive are the calls of the source. Calls come from the whole dose curve.
Outcome codes: active, inactive

MOLECULE | ASSAYED TARGET | DISCRETE LABEL
COC(=O)N[C@H](C(=O)N[C@@H](Cc1ccccc1)[C@@H](O)CN(Cc1ccc(-c2ccccn2)cc1)NC(=O)[C@@H](NC(=O)OC)C(C)(C)C)C(C)(C)C | Nucleoprotein (Lymphocytic choriomeningitis virus (strain Armstrong)) | inactive
CCc1c2c(nc3ccc(OC(=O)N4CCC(N5CCCCC5)CC4)cc13)-c1cc3c(c(=O)n1C2)COC(=O)[C@]3(O)CC | Nucleoprotein (Lymphocytic choriomeningitis virus (strain Armstrong)) | active
C[C@@H](c1ncncc1F)C(O)(Cn1cncn1)c1ccc(F)cc1F (stereo not given in full) | Nucleoprotein (Lymphocytic choriomeningitis virus (strain Armstrong)) | inactive
CCN(CC)CCN1C(=O)CN=C(c2ccccc2F)c2cc(Cl)ccc21 | Nucleoprotein (Lymphocytic choriomeningitis virus (strain Armstrong)) | inactive
Nc1cccc2c1CN(C1CCC(=O)NC1=O)C2=O (stereo not given) | Nucleoprotein (Lymphocytic choriomeningitis virus (strain Armstrong)) | inactive
Cc1nc2n(c(=O)c1CCN1CCC(c3noc4cc(F)ccc34)CC1)CCCC2 | Nucleoprotein (Lymphocytic choriomeningitis virus (strain Armstrong)) | inactive
c1ccc(C2CC2)c(OCC2=NCCN2)c1 | Nucleoprotein (Lymphocytic choriomeningitis virus (strain Armstrong)) | inactive
CN(C)C(=N)N=C(N)N | Nucleoprotein (Lymphocytic choriomeningitis virus (strain Armstrong)) | inactive
CN(C)/N=N/c1nc[nH]c1C(N)=O | Nucleoprotein (Lymphocytic choriomeningitis virus (strain Armstrong)) | inactive
Clc1ccc2c(c1)C(N1CCNCC1)=Nc1ccccc1O2 | Nucleoprotein (Lymphocytic choriomeningitis virus (strain Armstrong)) | inactive
